Tested on: RAW-Dual (murine macrophage reporter line)
Assay: NF-kB reporter (SEAP) activity fold change vs agonist alone; higher = enhanced NF-kB activity
Conditions: modulator concentration 10 µM; agonist: CpG ODN 1826 0.5 ug/mL
Observable: NF-kB reporter
Give bare numbers.

// solved cases for NF-kB reporter follow
Compound	Observable	Recorded measurement
C=CC(=O)N1CCC(Oc2cc3c(Nc4ccc(Cl)c(Cl)c4F)ncnc3cc2OC)CC1	NF-kB reporter	0.879
O=[N+]([O-])c1ccc(C=CC=Nc2ccc(-c3nc4ccccc4s3)c(O)c2)cc1	NF-kB reporter	0.813
CCC(=O)Nc1ccc(S(=O)(=O)N2CCCC(Cc3nc(C4CC4)no3)C2)c(C)c1 (centres undefined)	NF-kB reporter	0.885

Could you now consider this next compound?
The reported value for `COC(=O)C1=C(C)N(C)C(C)=C(C(=O)OC)C1c1cccc(C(F)(F)F)c1` in terms of NF-kB reporter is 0.884

----------
Test system: RAW-Dual (murine macrophage reporter line)
Assay: viability score (confluency relative to resting cells, overnight) (fraction); higher = more viable, active = viable (0.7 or more)
Details: modulator concentration 10 µM
Please state which outcome applies, choosing from True for active, False for inactive

(Q) How did this test come out for `O=C(Nc1ccc(S(=O)(=O)N2CCOCC2)cc1)c1ccc(Br)s1` ?
(A) True

(Q) Identify the outcome logged in this assay for the compound shown: `Cc1cccc2sc(OC3CN(C(=O)Nc4ccccc4C(F)(F)F)C3)nc12`
(A) True

(Q) Would you mind telling me which call this test gave `COc1ccc(CC(=O)N2CCC(N3CCC(OC)CC3)CC2)cc1OC` ?
(A) True

(Q) Kindly provide the recorded test outcome for the following compound: `O=C(Cn1ncccc1=O)N1Cc2cnc(N3CCOCC3)nc2C1`
(A) True

(Q) Returns: the outcome recorded for `COc1ccc(CN(CCN(C)C)c2ccccn2)cc1.O=C(O)C=CC(=O)O` in this assay.
(A) True

(Q) Dear all, I need the recorded test outcome for `Cc1cccc(OCCCSc2nc3ccccc3[nH]2)c1` , thank you.
(A) True

(Q) Could you please tell me the result logged for `Fc1ccc(CN2CCc3c([nH]c4ccccc34)C2)c(F)c1` in this assay?
(A) False

(Q) How did this test come out for CCOC(=O)C1CCCN(S(=O)(=O)Cc2ccccc2)C1 (stereo not given) ?
(A) True

(Q) // param item: `CCOc1ccc(-c2nc3c(c(C)nn3-c3ccccc3)c3cc(OC)c(OC)cc23)cc1` ; yields the recorded call
(A) True

(Q) Answer briefly: the call reported for Cl.OC(CCN1CCCCC1)(c1ccccc1)C1CCCCC1 (stereo not given) in this assay.
(A) True

----------
Tested on: RAW-Dual (murine macrophage reporter line)
Assay: IRF reporter (Lucia luciferase) activity fold change vs agonist alone; higher = enhanced IRF activity
Conditions: modulator concentration 10 µM; agonist: MPLA […]
# cutoff 1 applies to IRF reporter; >= gives Yes, < gives No

Worked examples follow.
Compound	Assayed system	Answer label
CCn1c2ccccc2c2cc(CNCCc3ccc(OC)cc3)ccc21	RAW-Dual (murine macrophage reporter line)	Yes
CCOC(=O)C1=C(C)N(c2ccc(OC)cc2)C(=O)C1=Cc1ccc(C(=O)O)cc1	RAW-Dual (murine macrophage reporter line)	Yes

(Q) Kindly determine if IRF reporter recorded for `O=C(c1cc2nc(-c3ccccc3)cc(-c3ccccc3)n2n1)N1CCCCCC1` is above or exactly 1.
(A) Yes

(Q) Hi team, for `CCCCCCc1ccc(O)cc1O` , is the recorded IRF reporter at or above 1?
(A) Yes

(Q) Determine whether measured IRF reporter meets or exceeds 1 for `CS(=O)(=O)c1ccc(C2=C(c3ccccc3)C(=O)OC2)cc1`
(A) No

(Q) In plain terms: is recorded IRF reporter at least 1 for `CC(C)=CCCC(C)=CC=NNC(=S)Nc1ccc(C)cc1` ?
(A) Yes

(Q) Form field: IRF reporter at least 1? Entry: `CC1=NN(c2ccc(Cl)cc2)C(=O)C1=Cc1c(C)nn(-c2ccc(C)cc2C)c1O`
(A) Yes

(Q) IRF reporter >= 1 for `CCS(=O)(=O)c1ccc(-c2ccc(NC(=O)c3cccc(OC)c3OC)cc2)nn1` ?
(A) Yes

(Q) Kindly determine if IRF reporter recorded for `O=C1CSC(=S)N1c1ccc(Cl)cc1` is above or exactly 1.
(A) No

(Q) Check this compound for IRF reporter at or above 1: Cl.OC(CCN1CCCCC1)(c1ccccc1)C1CCCCC1 (stereo not drawn)
(A) Yes

(Q) Does `COC(=O)c1cc(Br)ccc1NC(=O)c1ccccc1` have a reported IRF reporter of at least 1?
(A) Yes

(Q) Could you tell me if the measured IRF reporter of `COc1ccc(-n2ncc3c(Nc4cc(OC)c(OC)c(OC)c4)ncnc32)cc1` reaches 1 or more?
(A) Yes

(Q) Decide: IRF reporter of CNCC[C@@H](Oc1cccc2ccccc12)c1cccs1 [Prestw-1708] >= 1?
(A) Yes

(Q) # bool: IRF reporter of `CCOC(=O)Cc1nnnn1C` >= 1
(A) Yes

(Q) Entry `O=C(NCCN1CCN(c2ccc(Cl)cc2)CC1)c1cnccn1` : is its IRF reporter no less than 1?
(A) No

(Q) Is it the case that `CC(C)(C)C(=O)NCc1cccnc1-c1cccnc1` has IRF reporter reaching or exceeding 1?
(A) No

(Q) // inclusive: IRF reporter at least 1? input: `CCOc1ccc(CN2CCN(c3cc(C)nc4c5c(C)cc(C)nc5nn34)CC2)cc1`
(A) No

(Q) Given the entry CCOC(=O)C(CCc1ccccc1)NC(C)C(=O)N1C(C(=O)O)CC2CCCC21 (stereo not drawn) , answer whether its IRF reporter meets or surpasses 1.
(A) Yes

----------
Test system: RAW-Dual (murine macrophage reporter line)
Experiment: IRF reporter (Lucia luciferase) activity fold change vs agonist alone; higher = enhanced IRF activity
Settings: modulator concentration 10 µM; agonist: 3'3'-cGAMP 10 ug/mL
Observable: IRF reporter
Give bare numbers.

Compound	Assayed system	IRF reporter
COc1ccccc1N1CCN(c2ncnc3c2cnn3-c2cc(C)cc(C)c2)CC1	RAW-Dual (murine macrophage reporter line)	1.01

Required: IRF reporter, one value per compound below.
1. CN(C)CCNC(=S)NC(=O)C12CCC3CC(CC(C3)C1)C2
2. Br.COc1ccc2c3c1OC1CC(O)C=CC31CCN(C)C2 (stereo not given)

(A)
1: 0.994; 2: 1

For every record below, what is its IRF reporter?
1. CCOC(=O)Nc1nc(C)c(C(C)=O)s1
2. O=c1ncnc2[nH][nH]cc1-2

(A)
1. 0.996
2. 0.979

----------
Tested on: RAW-Dual (murine macrophage reporter line)
Assay: IRF reporter (Lucia luciferase) activity fold change vs agonist alone; higher = enhanced IRF activity
Conditions: modulator concentration 10 µM; agonist: MPLA […]
Observable: IRF reporter
One number for each entry.

Sample answers from the record:
Molecule	Recorded measurement
CC1CCc2c(oc3ccc(NS(=O)(=O)c4ccc(F)cc4)cc23)C1 (stereo not given)	1.76
O=C(COCc1ccccc1)NC1CCC(F)(F)CC1	1.02
COc1ccc(NC(=O)CN2C(=O)c3ccccc3C2=O)c([N+](=O)[O-])c1	1.36

Give measured IRF reporter for every item shown.
1. CC(=O)Nc1c(-c2ccc3ccccc3c2)nc2ccccn12
2. CC[C@H](C)C(=O)O[C@H]1C[C@@H](C)C=C2C=C[C@H](C)[C@H](CC[C@@H]3C[C@@H](O)CC(=O)O3)[C@H]21
3. COc1ccc(N(CC(=O)N2CCc3ccccc3C2)S(C)(=O)=O)cc1Cl
4. CCCCCCCCCCCC1=C(O)C(=O)C=C(O)C1=O
5. CC(C)(C)c1cc(CCC(=O)NN)cc(C(C)(C)C)c1O
6. Cc1cc2ncc3c(n2n1)CCN(S(=O)(=O)N(C)C)C3

(A)
1: 1.16; 2: 0.776; 3: 1.11; 4: 0.774; 5: 1.24; 6: 1.05

The molecule identified as `Cc1cc(-c2csc(NCc3ccccc3)n2)c(C)o1.Cl` registered its IRF reporter at 1.1

----------
System: RAW-Dual (murine macrophage reporter line)
Experiment: NF-kB reporter (SEAP) activity fold change vs agonist alone; higher = enhanced NF-kB activity
Conditions: modulator concentration 10 µM; agonist: LPS 0.1 ug/mL
So I've got a bunch of compounds here, and I need their NF-kB reporter values.
Numbers only.

Compound	Assayed system	Observable	Recorded measurement
COc1ccc(C(=O)Nc2nc(C)c(C)s2)cc1OC	RAW-Dual (murine macrophage reporter line)	NF-kB reporter	1.02
NC(=O)c1ccccc1O	RAW-Dual (murine macrophage reporter line)	NF-kB reporter	1.01
CC(C)OC(=O)c1c(NC(=O)C2CC=CCC2C(=O)O)sc2c1CCCC2 (centres undefined)	RAW-Dual (murine macrophage reporter line)	NF-kB reporter	0.999
Cc1cc(=O)[nH]c(=S)[nH]1	RAW-Dual (murine macrophage reporter line)	NF-kB reporter	1.02
COc1ccc(C(=O)Nc2sc3c(c2C(N)=O)CCCC3)cc1OC	RAW-Dual (murine macrophage reporter line)	NF-kB reporter	1.01
CCN(CC)c1ccc(C=NNC(=O)c2ccccc2I)c(O)c1	RAW-Dual (murine macrophage reporter line)	NF-kB reporter	0.997
COC(CNS(=O)(=O)c1cccnc1)c1ccc(C)s1 (centres undefined)	RAW-Dual (murine macrophage reporter line)	NF-kB reporter	0.992
CN(C)CCNC(=S)NC(=O)C12CCC3CC(CC(C3)C1)C2	RAW-Dual (murine macrophage reporter line)	NF-kB reporter	1

Kindly review the next compound as well.
Query Cc1cc(C(O)CCNC(=O)COc2cccc3c2OC(C)(C)C3)c(C)o1 (centres undefined) on RAW-Dual (murine macrophage reporter line); NF-kB reporter returned: 1.01
